molecular target: hMITF-WT (Homo sapiens, UniProt O75030-9 1-419); assay: FCS; 300 mM KCl; Single-molecule: 0.5 nM DNA, 10 mM Tris pH 7.4, 0.1 mM EDTA, 165 or 300 mM KCl, 1 mM MgCl2, 143 mM 2-ME, 0.01% Tween-20, 0.1 mg/mL BSA. EMSA: 10 mM Hepes pH 7.9, 50 mM NaCl, 5 mM MgCl2, 0.1 mM EDTA, 2 mM DTT, 5% ethylene glycol, 5% glycerol, BSA, 30 min on ice; settings: protein: recombinant; tags: none (His6-SUMO removed by ULP-1); unlabeled; chain copies: 2; label: Cy3B (5' positive strand); CF660R (5' negative strand); blunt
Sequence (O75030 other isoform, or with tags, fused parts or gaps): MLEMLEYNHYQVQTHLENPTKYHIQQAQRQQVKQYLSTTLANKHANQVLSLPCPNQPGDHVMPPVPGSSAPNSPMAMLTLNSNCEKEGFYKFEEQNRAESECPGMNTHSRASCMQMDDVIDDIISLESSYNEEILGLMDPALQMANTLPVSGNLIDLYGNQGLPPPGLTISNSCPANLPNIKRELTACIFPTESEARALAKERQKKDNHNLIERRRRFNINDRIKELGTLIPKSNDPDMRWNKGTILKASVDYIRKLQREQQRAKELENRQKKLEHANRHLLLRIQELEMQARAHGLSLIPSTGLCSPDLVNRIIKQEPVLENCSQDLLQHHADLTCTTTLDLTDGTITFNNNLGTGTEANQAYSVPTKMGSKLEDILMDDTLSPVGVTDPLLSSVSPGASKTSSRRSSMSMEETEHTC
measured.metric: Kd (nM)

1. M-box smFRET probe (dsDNA, 5' C6-amino linker on both strands) DNA 1: GAGATCATGTGTTGA DNA 2: TCAACACATGATCTC : 4.5
